Tested on: A549/ATCC NSCLC
Test: NCI-60 one-dose screen, 48 h (100 = growth as untreated, 0 = no growth, -100 = all killed)
Settings: 10 µM unless noted
Compounds without any hit were thinned out: in the full panel of roughly 83,000, 20% have a hit.
Quick rule: growth of at least 80% means Met, below that means Not met.

>  <COMPOUND>
CCN(CC)CCN1C(=O)c2c(c3c4ccccc4[nH]c3c3ccc4ccccc4c23)C1=O

>  <ASSIGNED LABEL>
Not met

$$$$
>  <COMPOUND>
CC(O)Cc1c[nH]c(=O)[nH]c1=O (configuration not stated)

>  <ASSIGNED LABEL>
Met

$$$$
>  <COMPOUND>
Cc1cc(Cl)nc(N2CCN(CCNc3ccnc4cc(Cl)ccc34)CC2)n1

>  <ASSIGNED LABEL>
Not met

$$$$
>  <COMPOUND>
CCOC(=O)C1=C(CCl)N(C)C(=O)NC1c1ccc2c(c1)OCO2 (configuration not stated)

>  <ASSIGNED LABEL>
Met

$$$$
>  <COMPOUND>
COc1cc(/C=C/C(=O)N2CCN(C(=O)c3cc(OC)c(OC)c(OC)c3)CC2)ccc1OCCCOc1cc2c(cc1OC)C(=O)N1CCC[C@H]1C=N2

>  <ASSIGNED LABEL>
Not met

$$$$
>  <COMPOUND>
N[C@@H]1CCC[C@H]1NCCCCN1C(=O)c2cccc3cc([N+](=O)[O-])cc(c23)C1=O

>  <ASSIGNED LABEL>
Not met

$$$$

Here is another compound to look at.
## Task Entry C/C(Cc1ccc(Cl)cc1)=C(\c1ccc(OCCN2CCCCCC2)cc1)c1ccc(OC(=O)c2ccccc2)cc1 : is its growth no less than 80%?
## Result Not met

* * *

System: PC-3 prostate
Test: NCI-60 one-dose screen, 48 h (100 = growth as untreated, 0 = no growth, -100 = all killed)
Details: 10 µM unless noted
Compounds without any hit were thinned out: in the full panel of roughly 83,000, 20% have a hit.
# Lookup of reported growth keyed by entry
API: value field is a number in %; no unit string.

Consider the reported growth for these molecules:
>  <MOLECULE>
COc1ccc(C=Nc2c(C(=O)Nc3cccc(Cl)c3C)sc3nc(C)c(C(=O)/C=C/c4ccc(OC)cc4)cc23)cc1

>  <RESULT UNIT>
%

>  <growth>
32.8

$$$$
>  <MOLECULE>
C=C(C)[C@@H]1CC[C@]2(C(=O)N3CCN(C)CC3)CC[C@]3(C)[C@H](CC[C@@H]4[C@@](C)(CCC(=O)O)[C@H](C(=C)C)CC[C@]43C)[C@@H]12

>  <RESULT UNIT>
%

>  <growth>
55.4

$$$$
>  <MOLECULE>
COC(=O)c1nc(-c2ccccc2)oc1S(=O)(=O)N1CCCC(C)C1 (centres undefined)

>  <RESULT UNIT>
%

>  <growth>
71.6

$$$$
>  <MOLECULE>
CCN(CC)CCOc1ccc(C(=O)/C=C\c2ccc(Cl)cc2Cl)cc1

>  <RESULT UNIT>
%

>  <growth>
23.3

$$$$
>  <MOLECULE>
O=[N+]([O-])c1ccccc1Nc1ccc2ccccc2c1

>  <RESULT UNIT>
%

>  <growth>
92.3

$$$$

## Task GET /values?readout=growth&item= Cc1ccc2c(c1)nc(C)n2-c1ncnc2c1CC(C)c1cc(O)ccc1N2C (centres undefined)
## Result 29.6

## Task Same lookup for COc1ccc2c(c1)C(C)Cc1c(ncnc1-n1cnc3cc(C)ccc31)N2C (centres undefined) , please.
## Result 24.7

## Task Moving on to the next molecule: CCOC(=O)c1c(C)nc2c(c1N)C(=O)C(=O)N2Cc1ccc(OC)cc1
## Result 47.9

## Task // next record O=C1O[C@@H](c2ccccc2Cl)[C@@H]2c3cc4c(cc3CCN12)OCO4
## Result 87.7

* * *

Tested on: SF-539 CNS
Assay: NCI-60 one-dose screen, 48 h (100 = growth as untreated, 0 = no growth, -100 = all killed)
Conditions: 10 µM unless noted
Compounds without any hit were thinned out: in the full panel of roughly 83,000, 20% have a hit.
MEASURE: growth (%)
Quick note: give the figure in %, leave out the unit.

Some solved cases for reference:
>  <MOLECULE>
O=C(Nc1cccnc1Nc1ccccc1)c1cn(Cc2cccc(Oc3ccccc3)c2)nn1

>  <STUDY TARGET>
SF-539 CNS

>  <growth / %>
42

$$$$
>  <MOLECULE>
CCCn1c(=S)sc2c(NNC(C)=O)nc(C)nc21

>  <STUDY TARGET>
SF-539 CNS

>  <growth / %>
90.6

$$$$
>  <MOLECULE>
COc1cc2ncnc(Nc3ccc(F)c(Cl)c3)c2cc1OCC(=O)N1CCOCC1

>  <STUDY TARGET>
SF-539 CNS

>  <growth / %>
97.7

$$$$
>  <MOLECULE>
COc1ccc2c(c1)C(C)Cc1c(ncnc1-n1cnc3cc(C)ccc31)N2C (stereo not given)

>  <STUDY TARGET>
SF-539 CNS

>  <growth / %>
10.7

$$$$

Then this molecule:
## Task Request the reported growth associated with CN1c2ccccc2S(=O)(=O)n2c(SCC(=O)Nc3nc4ccc(F)cc4s3)nnc21
## Result 108

* * *

The entries below come with measured growth values attached.
System: CAKI-1 renal
Assay: NCI-60 one-dose screen, 48 h (100 = growth as untreated, 0 = no growth, -100 = all killed)
Settings: 10 µM unless noted
The panel holds about 83,000 compounds, 20% with a hit somewhere; the sample as a whole holds those more often.
Report as a plain number; the unit % is understood.

Example entries begin here.
>  <MOLECULE>
CC1(C)N=C(N)N=C(N)N1c1ccc(S(=O)(=O)Nc2nccs2)cc1

>  <STUDY TARGET>
CAKI-1 renal

>  <growth, %>
94.3

$$$$
>  <MOLECULE>
COc1cc(C[C@H]2COc3cc(O)cc(O)c3C2=O)ccc1O

>  <STUDY TARGET>
CAKI-1 renal

>  <growth, %>
35.8

$$$$
>  <MOLECULE>
CSc1ccc2c3c(n(CCCn4ccnc4)c(=O)c2c1)-c1ccccc1C3=O

>  <STUDY TARGET>
CAKI-1 renal

>  <growth, %>
24.6

$$$$
>  <MOLECULE>
COc1ccc(C2CC(c3ccccc3)=NN2C(=O)c2cc(OC)c(OC)c(OC)c2)cc1O (centres undefined)

>  <STUDY TARGET>
CAKI-1 renal

>  <growth, %>
52.9

$$$$
>  <MOLECULE>
COc1ccc(/C=N/NC(=O)Cn2c(-c3ccc(S(C)(=O)=O)cc3)nc3ccccc32)cc1

>  <STUDY TARGET>
CAKI-1 renal

>  <growth, %>
93

$$$$
>  <MOLECULE>
CCCc1cc(=O)oc2c(C(=O)CC(C)C)c(O)c(CC=C(C)C)c(O)c12

>  <STUDY TARGET>
CAKI-1 renal

>  <growth, %>
11.1

$$$$

## Task API: value(readout=growth, system=CAKI-1 renal) for record COC(=O)c1c(C)nc(C)c2c1C(=O)C=C(NCc1ccccc1)C2=O
## Result 81.5

## Task Follow-up entry: O=C(NCCCCO)c1cncnc1Nc1ccc2c(ccn2Cc2cccc(F)c2)c1
## Result 79.8

## Task Another: COc1cc(Cc2cc(OC)c(O)c(OC)c2)cc(OC)c1O
## Result 73.9

## Task Request: FC(F)(F)c1[nH]ncc1-c1nc2ccc3[nH]ncc3c2c2c1CCCC2
## Result 9.85

## Task Try CNC(=O)NCC1OC(n2cnc3c(NC(=O)Nc4ccccc4)ncnc32)C2OC(=O)CC12 (centres undefined) next.
## Result 100

## Task Same thing, different molecule: CCOC(=O)C1=C(CCl)N(C)C(=O)NC1c1ccc2c(c1)OCO2 (centres undefined)
## Result 36.7

* * *

System: SF-539 CNS
Test: NCI-60 one-dose screen, 48 h
Conditions: 10 µM unless noted
The panel holds about 83,000 compounds, 20% with a hit somewhere; the sample as a whole holds those more often. Activity calls are given as the source filed them. The calls were made as follows: active = growth percent below 10; inactive = the rest.
Field 'call' accepts 1 = active, -1 = inactive

>  <MOLECULE>
COC(=O)c1ccc2cc(OC)c(OC)cc2c1

>  <STUDY TARGET>
SF-539 CNS

>  <ASSIGNED LABEL>
-1

$$$$
>  <MOLECULE>
CCOC(=O)C(CCN(C)C)c1ccccc1 (stereo not given)

>  <STUDY TARGET>
SF-539 CNS

>  <ASSIGNED LABEL>
-1

$$$$
>  <MOLECULE>
O=c1cc(CP(=O)(O)O)c2cc(O)c(-c3ccccc3)cc2o1

>  <STUDY TARGET>
SF-539 CNS

>  <ASSIGNED LABEL>
-1

$$$$
>  <MOLECULE>
COc1cc(/C=C/c2cc(/C=C/c3ccc(O)c(OC)c3)n(C(=O)Nc3ccc(Cl)cc3)n2)ccc1O

>  <STUDY TARGET>
SF-539 CNS

>  <ASSIGNED LABEL>
1

$$$$

## Task Please indicate how the test categorized C=C(C)[C@@H]1CC[C@]2(CO)CC[C@]3(C)[C@H](CC[C@@H]4[C@@](C)(CCCN)[C@H](C(=C)C)CC[C@]43C)[C@@H]12 .
## Result 1

## Task Another: c1cc(OCCN2CCCC2)ccc1CNc1ccc2nc(CCC3CCCCC3)[nH]c2c1
## Result 1

## Task Thanks! And CCOC(=O)CC[C@H](NC(=O)c1ccc(N(C)Cc2cnc3nc(N)nc(N)c3n2)c2ccccc12)C(=O)OCC ?
## Result -1
